Tested on: LOX IMVI melanoma
experimental details: NCI-60 one-dose screen, 48 h (100 = growth as untreated, 0 = no growth, -100 = all killed)
settings: 10 µM unless noted
This is part of a sample that, as a whole, favours compounds with a hit. Of some 83,000 tested, about 20% had one in any assay.
Outcome label depends on growth relative to 40%: at/above gives Met, below gives Not met.

- compound: "O=C1NC(=O)C(=Cc2cn(CCCCCCn3c4ccccc4c(=O)c4ccccc43)c3ccccc23)C(=O)N1"
  assayed system: "LOX IMVI melanoma"
  discrete label: "Met"
- compound: "[Cl][Hg][c]1cc[c]([Hg][Cl])o1"
  assayed system: "LOX IMVI melanoma"
  discrete label: "Not met"

Given the entry COC(=O)[C@@H](C)C[C@H](Cc1ccccc1)NC(=O)c1csc([C@@H](C[C@H](C(C)C)N(C)C(=O)[C@@H](NC(=O)[C@H]2CCCCN2C)c2ccc(F)cc2)OC(C)=O)n1 , answer whether its growth meets or surpasses 40%.
Not met

Given the entry CS(=O)(=O)CCN1CC2CCCC(C2)C1 , answer whether its growth meets or surpasses 40%.
Met

Given the entry CCCCCCCCOC(=O)CCN1CC1 , answer whether its growth meets or surpasses 40%.
Met

----------
Test system: MDA-MB-231 breast
experimental details: NCI-60 one-dose screen, 48 h (100 = growth as untreated, 0 = no growth, -100 = all killed)
settings: 10 µM unless noted
The panel holds about 83,000 compounds, 20% with a hit somewhere; the sample as a whole holds those more often.
Kindly apply the following: criterion met if growth is less than 20%, criterion not met in every other case.

- compound structure string: "COC(=O)N[C@H]1CCc2c(Br)c(OC)c(OC)c(OC)c2-c2ccc(SC)c(=O)cc21"
  assayed system: "MDA-MB-231 breast"
  discrete label: "criterion met"
- compound structure string: "O=NNc1ccccn1"
  assayed system: "MDA-MB-231 breast"
  discrete label: "criterion not met"
- compound structure string: "CCCC[C@H](NC(=O)[C@H]1CCCCN1C)C(=O)N(C)[C@H](C[C@@H](OC(C)=O)c1nc(C(=O)N[C@@H](Cc2ccccc2)C[C@H](C)C(=O)OCC)cs1)C(C)C"
  assayed system: "MDA-MB-231 breast"
  discrete label: "criterion met"

Field: below-cutoff. Rule: recorded growth strictly less than 20%. Subject: COc1ccc(-n2c(C)nc3cc(OC)c(OC)cc3c2=O)cc1OC
criterion not met

Field: below-cutoff. Rule: recorded growth strictly less than 20%. Subject: O=C(Nc1ccc(Cl)cc1)Nc1nccs1
criterion not met

Field: below-cutoff. Rule: recorded growth strictly less than 20%. Subject: COc1cc([C@@H]2c3cc4c(cc3[C@H](OC(C)=O)[C@H]3COC(=O)[C@@H]23)OCO4)cc(OC)c1OC
criterion met

Field: below-cutoff. Rule: recorded growth strictly less than 20%. Subject: c1cnc2[nH]cc(-c3csc(-c4cn(CCCCN5CCOCC5)c5ccccc45)n3)c2c1
criterion not met

----------
Tested on: K-562 leukemia
experimental details: NCI-60 one-dose screen, 48 h (100 = growth as untreated, 0 = no growth, -100 = all killed)
settings: 10 µM unless noted
About 83,000 compounds went through this panel and 20% of them were active in at least one assay; those are over-represented in the sample as a whole.
growth values for the compounds below.
Give just the numeric value; % need not be written.

- compound: "NC(N)=N/N=C\\c1c[nH]c2ccc(Br)cc12"
  growth (%): 74.6

Reported growth for COC(=O)[C@@H](C)C[C@H](Cc1ccccc1)NC(=O)c1csc([C@@H](C[C@H](C(C)C)N(C)C(=O)[C@@H](NC(=O)C23CC(NC(C)=O)(C2)C3)C2CC2)OC(C)=O)n1 : what is it?
14.2

Reported growth for CCOC(=O)[C@@H](C)C[C@H](Cc1ccccc1)NC(=O)c1csc([C@@H](C[C@H](C(C)C)N(C)C(=O)[C@H](CCC(C)C)NC(=O)[C@H]2CCCCN2C)OC(C)=O)n1 : what is it?
7.91

Reported growth for COC(=O)[C@@H](C)C[C@H](Cc1ccc(F)cc1)NC(=O)c1csc([C@@H](C[C@H](C(C)C)N(C)C(=O)[C@@H](NC(=O)[C@H]2CCCCN2C)C(C)C)OC(C)=O)n1 : what is it?
8.92

Reported growth for O=C(CCCCCCC(=O)Nc1ccc(N(CCCl)CCCl)cc1)NO : what is it?
32.6

Reported growth for CC1[C@H](C)OC(=O)CC(O)CC(O)CC(O)CCC(O)C(O)C[C@]2(O)CC(O)C(C(=O)O)C(CC(OC3O[C@H](C)[C@@H](O)[C@H](N)[C@@H]3O)/C=C/C=C/C=C/C=C/CC/C=C/C=C/[C@H](C)[C@H]1O)O2 (some centres not stated) : what is it?
111

Reported growth for Clc1ccc(CSC(Cn2ccnc2)c2ccc(Cl)cc2Cl)cc1 (configuration not stated) : what is it?
10.2
